Hello, the source for this data is patent US20030175216A1, in case you need it.

Test system: odor formation in freshly-taken morning saliva
Assay: Inhibition of in vitro odor formation by higher alcohols (saliva in decarboxylase medium)
Assay type: cell-based
Conditions: 30 μl of 1% solution; scale 0-5
metric.name: Odor Score (Judge 2)

So what does the record say about Odor Score (Judge 2) for CCCCCCCCCCCO [C11, 1-undecanol] ?
0

Query CCCCCCCCO [C8] next
3

----------
System: odor formation in freshly-taken morning saliva
Experiment: Inhibition of in vitro odor formation by higher alcohols (saliva in decarboxylase medium)
Format: cell-based
Conditions: 30 μl of 1% solution; scale 0-5
metric.name: Odor Score (Judge 1)
Answer using only a numeral; do not append any unit.

The following compounds have reported results that may help.
• CCCCCCCCCO = 0
• CCCCCCCCCCCO = 0
• CCCCCCCCCCCCCCCCCCO = 5
• CCCCCCCCCCCCO = 3
• CCCCCCCCCCCCCCCCO = 5

So what does the record say about Odor Score (Judge 1) for CCCCCCCCCCO ?
0

Query N=C(NCCCCCCNC(=N)NC(=N)Nc1ccc(Cl)cc1)NC(=N)Nc1ccc(Cl)cc1.O=C(O)[C@H](O)[C@@H](O)[C@H](O)[C@H](O)CO.O=C(O)[C@H](O)[C@@H](O)[C@H](O)[C@H](O)CO [CHX, chlorhexidine digluconate, reference compound] next
0

Query CCCCCCCCO next
3

Query CCCCCCCCCCCCCCO next
5

----------
Test system: odor formation in freshly-taken morning saliva
Assay: Inhibition of in vitro odor formation by higher alcohols (saliva in decarboxylase medium)
Assay type: cell-based
Details: 50 μl of 1% solution; scale 0-5
metric.name: Odor Score (Judge 2)

The following compounds have reported results that may help.
- CCCCCCCCCCCCCCCCO: 4
- CCCCCCCCCCCCO: 3.5

So what does the record say about Odor Score (Judge 2) for CCCCCCCCO ?
4

Query CCCCCCCCCCCCCCCCCCO next
4

Query CCCCCCCCCCCO next
0

Query CCCCCCCCCCCCCCO next
4

Query CCCCCCCCCCO next
0

Query CCCCCCCCCO next
0

----------
molecules and their reported Odor Score (Judge 2)
Test system: odor formation in freshly-taken morning saliva
Assay: Inhibition of in vitro odor formation by higher alcohols (saliva in decarboxylase medium)
Format: cell-based
Conditions: 20 μl of 1% solution; scale 0-5
Answer using only a numeral; do not append any unit.

* CCCCCCCCCCCO [C11, 1-undecanol] | 0.5
* CCCCCCCCCCCCCCCCO [C16] | 5
* CCCCCCCCO [C8] | 3

Okay, next one:
So what does the record say about Odor Score (Judge 2) for CCCCCCCCCO [C9, 1-nonanol] ?
4

----------
molecules and their reported Odor Score (Judge 1)
System: odor formation in freshly-taken morning saliva
Assay: Inhibition of in vitro odor formation by higher alcohols (saliva in decarboxylase medium)
Assay type: cell-based
Details: 40 μl of 1% solution; scale 0-5
Answer using only a numeral; do not append any unit.

The following molecules have reported results that may help.
* CCCCCCCCO | 4
* CCCCCCCCCCCCCCO | 5
* CCCCCCCCCCCCCCCCCCO | 4
* CCCCCCCCCCCCCCCCO | 5

So what does the record say about Odor Score (Judge 1) for N=C(NCCCCCCNC(=N)NC(=N)Nc1ccc(Cl)cc1)NC(=N)Nc1ccc(Cl)cc1.O=C(O)[C@H](O)[C@@H](O)[C@H](O)[C@H](O)CO.O=C(O)[C@H](O)[C@@H](O)[C@H](O)[C@H](O)CO [CHX, chlorhexidine digluconate, reference compound] ?
0

Query CCCCCCCCCCO next
0

Query CCCCCCCCCCCCO next
2

Query CCCCCCCCCO next
0

Query CCCCCCCCCCCO next
0

----------
compounds and their reported Odor Score (Judge 2)
System: odor formation in freshly-taken morning saliva
Test: Inhibition of in vitro odor formation by higher alcohols (saliva in decarboxylase medium)
Format: cell-based
Conditions: 40 μl of 1% solution; scale 0-5
Answer using only a numeral; do not append any unit.

• N=C(NCCCCCCNC(=N)NC(=N)Nc1ccc(Cl)cc1)NC(=N)Nc1ccc(Cl)cc1.O=C(O)[C@H](O)[C@@H](O)[C@H](O)[C@H](O)CO.O=C(O)[C@H](O)[C@@H](O)[C@H](O)[C@H](O)CO [CHX, chlorhexidine digluconate, reference compound] = 0

So what does the record say about Odor Score (Judge 2) for CCCCCCCCCCCCCCCCO [C16] ?
5

Query CCCCCCCCCCCO [C11, 1-undecanol] next
0

Query CCCCCCCCCCCCO [C12] next
3

Query CCCCCCCCCCCCCCO [C14] next
5

Query CCCCCCCCO [C8] next
3

Query CCCCCCCCCCCCCCCCCCO [C18] next
4

Query CCCCCCCCCCO [C10, 1-decanol] next
0

Query CCCCCCCCCO [C9, 1-nonanol] next
0

----------
compounds and their reported Odor Score (Judge 1)
System: odor formation in freshly-taken morning saliva
Test: Inhibition of in vitro odor formation by higher alcohols (saliva in decarboxylase medium)
Type: cell-based
Conditions: 20 μl of 1% solution; scale 0-5

• CCCCCCCCCCCCCCCCCCO = 5
• CCCCCCCCCCCCCCCC[n+]1ccccc1 [CPC, cetylpyridinium chloride, reference compound] = 0
• CCCCCCCCCCCCCCCCO = 5
• CCCCCCCCCCO = 0
• CCCCCCCCCCCCCCO = 5

Okay, next one:
So what does the record say about Odor Score (Judge 1) for CCCCCCCCO ?
3

----------
Test system: odor formation in freshly-taken morning saliva
Assay: Inhibition of in vitro odor formation by higher alcohols (saliva in decarboxylase medium)
Type: cell-based
Conditions: 30 μl of 1% solution; scale 0-5
metric.name: Odor Score (Judge 2)
Answer using only a numeral; do not append any unit.

So what does the record say about Odor Score (Judge 2) for CCCCCCCCCCCCCCCCCCO [C18] ?
5

Query N=C(NCCCCCCNC(=N)NC(=N)Nc1ccc(Cl)cc1)NC(=N)Nc1ccc(Cl)cc1.O=C(O)[C@H](O)[C@@H](O)[C@H](O)[C@H](O)CO.O=C(O)[C@H](O)[C@@H](O)[C@H](O)[C@H](O)CO [CHX, chlorhexidine digluconate, reference compound] next
0

Query CCCCCCCCCO [C9, 1-nonanol] next
0

Query CCCCCCCCCCCCCCO [C14] next
5

Query CCCCCCCCCCO [C10, 1-decanol] next
0

Query CCCCCCCCCCCCCCCCO [C16] next
5

Query CCCCCCCCCCCCO [C12] next
3

----------
compounds and their reported Odor Score (Judge 2)
Test system: odor formation in freshly-taken morning saliva
Test: Inhibition of in vitro odor formation by higher alcohols (saliva in decarboxylase medium)
Type: cell-based
Details: 20 μl of 1% solution; scale 0-5
Answer using only a numeral; do not append any unit.

The following compounds have reported results that may help.
- CCCCCCCCCCO: 0
- CCCCCCCCCCCCCCCC[n+]1ccccc1 [CPC, cetylpyridinium chloride, reference compound]: 0
- CCCCCCCCCCCCCCO: 5
- N=C(NCCCCCCNC(=N)NC(=N)Nc1ccc(Cl)cc1)NC(=N)Nc1ccc(Cl)cc1.O=C(O)[C@H](O)[C@@H](O)[C@H](O)[C@H](O)CO.O=C(O)[C@H](O)[C@@H](O)[C@H](O)[C@H](O)CO [CHX, chlorhexidine digluconate, reference compound]: 0
- CCCCCCCCCCCCO: 4

Okay, next one:
So what does the record say about Odor Score (Judge 2) for CCCCCCCCCCCCCCCCCCO ?
5

----------
Test system: odor formation in freshly-taken morning saliva
Assay: Inhibition of in vitro odor formation by higher alcohols (saliva in decarboxylase medium)
Assay type: cell-based
Settings: 20 μl of 1% solution; scale 0-5
compounds and their reported Odor Score (Judge 1)

The following compounds have reported results that may help.
• CCCCCCCCCCCCO [C12] = 4
• CCCCCCCCCO [C9, 1-nonanol] = 4

So what does the record say about Odor Score (Judge 1) for N=C(NCCCCCCNC(=N)NC(=N)Nc1ccc(Cl)cc1)NC(=N)Nc1ccc(Cl)cc1.O=C(O)[C@H](O)[C@@H](O)[C@H](O)[C@H](O)CO.O=C(O)[C@H](O)[C@@H](O)[C@H](O)[C@H](O)CO [CHX, chlorhexidine digluconate, reference compound] ?
0

Query CCCCCCCCCCCO [C11, 1-undecanol] next
0
